Source of measurements: the supplement of paper PMC6757056

B1: library; a variant is named by its letters at N, in order (parent)
chain: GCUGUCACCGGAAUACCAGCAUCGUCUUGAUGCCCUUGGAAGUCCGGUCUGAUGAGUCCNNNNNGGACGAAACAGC

- Variants of: B1
- protocol-summary: FACS-Seq fitted mean relative fluorescence mCherry/BFP with ligand (log10 relative fluorescence); ligand concentration (+) FACS-Seq: 1 mM; higher = higher reporter protein expression
- conditions: HEK293T, ligand present: yes
property-name: FACS-Seq fitted mean (log10)
Form rule: numeric answer, no unit written next to it.

Form field FACS-Seq fitted mean (log10), entry UCAUG : 0.349

The measured FACS-Seq fitted mean (log10) associated with GCAAG reads 0.9

Form field FACS-Seq fitted mean (log10), entry AAGCC : 0.72

Measured FACS-Seq fitted mean (log10) of ACGCA : 0.824

In plain terms, UCCGA has a documented FACS-Seq fitted mean (log10) of 0.669

***
Sure, the documented FACS-Seq fitted mean (log10) for CCUUA is 0.707

Lab note: CAGUU gave FACS-Seq fitted mean (log10) of 0.76

The variant listed as CUGAC has a reported FACS-Seq fitted mean (log10) of 0.902
